Molecular target: Histone-lysine N-methyltransferase SUV39H1 (Homo sapiens)
Test: Inhibition of SUV39H1 (unknown origin) using biotin-labeled histone substrate assessed as residual activity at 50 uM in presence of [3H-Me]SAM by scintillation proximity assay relative to control
MEASURE: Activity (%)
Supply the numeric figure in %, leaving out any unit text.

>>> test_value("CN1CCCC12CCN(C(=O)c1cccc(Br)c1)CC2")
104

### Prompt Sample O=C(c1cccc(Br)c1)N1CCCC2(CCCCN2)C1 (stereo not drawn) — what was its Activity?
### Response 90

### Prompt Sample "CN1CC[C@H]2CN(C(=O)c3cccc(Br)c3)C[C@H]21" — what was its Activity?
### Response 82

### Prompt Sample CN1CCC2(CCCN(C(=O)c3cccc(Br)c3)C2)C1 (stereo not drawn) — what was its Activity?
### Response 103

### Prompt Sample "O=C(c1cccc(Br)c1)N1CCC2(CCNCC2)CC1" — what was its Activity?
### Response 99

### Prompt Sample O=C(c1cccc(Br)c1)N1CCC2CNCC2C1 (stereo not drawn) — what was its Activity?
### Response 92

### Prompt Sample "O=C(c1cccc(Br)c1)N1CC[C@H]2NCC[C@H]2C1" — what was its Activity?
### Response 104

### Prompt Sample "O=C(c1cccc(Br)c1)N1CCCC2(CCNCC2)C1" — what was its Activity?
### Response 106

### Prompt Sample "O=C(c1cccc(Br)c1)N1C[C@H]2CCCN[C@H]2C1" — what was its Activity?
### Response 103

### Prompt Sample CN1CCCCC12CCCN(C(=O)c1cccc(Br)c1)C2 (stereo not drawn) — what was its Activity?
### Response 102

### Prompt Sample O=C(c1cccc(Br)c1)N1C[C@@H]2CC3CCCCN3[C@@H]2C1 (stereo partly drawn) — what was its Activity?
### Response 107

### Prompt Sample CN1CCCC2(CCCN2C(=O)c2cccc(Br)c2)C1 (stereo not drawn) — what was its Activity?
### Response 91

### Prompt Sample "O=C(c1cccc(Br)c1)N1C[C@@H]2CCN[C@@H]2C1" — what was its Activity?
### Response 77

### Prompt Sample "CN1C[C@H]2CCCN(C(=O)c3cccc(Br)c3)[C@H]2C1" — what was its Activity?
### Response 97

* * *

Biological target: Histone-lysine N-methyltransferase, H3 lysine-79 specific (Homo sapiens) (UniProt Q8TEK3)
Sequence (Q8TEK3 whole entry, looked up): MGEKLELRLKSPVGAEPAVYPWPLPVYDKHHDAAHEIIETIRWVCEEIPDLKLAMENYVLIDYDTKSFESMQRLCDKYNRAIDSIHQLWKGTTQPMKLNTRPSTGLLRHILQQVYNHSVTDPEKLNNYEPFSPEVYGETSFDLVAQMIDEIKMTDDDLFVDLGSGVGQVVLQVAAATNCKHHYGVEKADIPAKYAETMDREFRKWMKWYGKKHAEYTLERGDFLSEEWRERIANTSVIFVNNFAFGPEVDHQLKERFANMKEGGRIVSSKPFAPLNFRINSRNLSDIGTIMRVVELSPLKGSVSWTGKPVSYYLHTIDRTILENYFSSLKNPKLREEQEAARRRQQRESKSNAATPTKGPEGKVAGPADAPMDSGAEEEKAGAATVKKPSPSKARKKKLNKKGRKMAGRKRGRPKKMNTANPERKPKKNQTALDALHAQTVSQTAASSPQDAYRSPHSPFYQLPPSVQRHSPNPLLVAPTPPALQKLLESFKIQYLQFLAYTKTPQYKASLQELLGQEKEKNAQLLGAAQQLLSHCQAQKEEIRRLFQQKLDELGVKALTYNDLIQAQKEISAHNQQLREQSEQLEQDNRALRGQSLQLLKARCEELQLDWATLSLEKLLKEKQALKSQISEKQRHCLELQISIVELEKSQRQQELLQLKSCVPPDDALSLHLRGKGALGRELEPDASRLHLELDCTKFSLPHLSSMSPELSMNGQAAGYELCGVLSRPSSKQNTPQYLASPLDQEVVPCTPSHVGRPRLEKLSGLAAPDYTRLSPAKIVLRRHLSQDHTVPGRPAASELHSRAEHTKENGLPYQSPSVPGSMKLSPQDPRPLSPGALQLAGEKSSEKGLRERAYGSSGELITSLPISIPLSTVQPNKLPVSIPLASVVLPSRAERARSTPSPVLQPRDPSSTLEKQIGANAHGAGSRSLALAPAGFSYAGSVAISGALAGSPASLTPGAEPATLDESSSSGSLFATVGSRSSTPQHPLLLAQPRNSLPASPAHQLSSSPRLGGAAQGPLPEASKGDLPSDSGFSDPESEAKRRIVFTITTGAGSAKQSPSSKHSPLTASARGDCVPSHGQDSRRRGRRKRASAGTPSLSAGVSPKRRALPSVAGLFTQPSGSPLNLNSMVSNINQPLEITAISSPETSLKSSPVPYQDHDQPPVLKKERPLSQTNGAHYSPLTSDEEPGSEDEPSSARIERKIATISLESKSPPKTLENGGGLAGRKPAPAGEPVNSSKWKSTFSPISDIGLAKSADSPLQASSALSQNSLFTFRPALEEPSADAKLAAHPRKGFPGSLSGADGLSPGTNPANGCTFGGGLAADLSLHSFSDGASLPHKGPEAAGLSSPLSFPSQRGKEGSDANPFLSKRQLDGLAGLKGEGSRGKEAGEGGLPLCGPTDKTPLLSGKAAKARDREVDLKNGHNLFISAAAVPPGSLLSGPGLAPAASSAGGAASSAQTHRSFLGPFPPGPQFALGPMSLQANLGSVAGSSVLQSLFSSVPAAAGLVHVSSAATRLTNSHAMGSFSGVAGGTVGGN
Assay: Inhibition of DOT1L (unknown origin) using biotin-labeled histone substrate assessed as residual activity at 50 uM in presence of [3H-Me]SAM by scintillation proximity assay relative to control
MEASURE: Activity (%)
Supply the numeric figure in %, leaving out any unit text.

### Prompt Sample "O=C(c1cccc(Br)c1)N1CCCC2(CCNCC2)C1" — what was its Activity?
### Response 96

### Prompt Sample "O=C(c1cccc(Br)c1)N1CC[C@H]2NCC[C@H]2C1" — what was its Activity?
### Response 99

### Prompt Sample "CN1C[C@H]2CCCN(C(=O)c3cccc(Br)c3)[C@H]2C1" — what was its Activity?
### Response 94

### Prompt Sample "O=C(c1cccc(Br)c1)N1CCC[C@@H]2CNC[C@@H]21" — what was its Activity?
### Response 96

### Prompt Sample O=C(c1cccc(Br)c1)N1C[C@@H]2CC3CCCCN3[C@@H]2C1 (some centres not stated) — what was its Activity?
### Response 96

### Prompt Sample "CN1CCC2(CC1)CCN(C(=O)c1cccc(Br)c1)CC2" — what was its Activity?
### Response 102

* * *

Target: Histone-lysine N-methyltransferase NSD3 (Homo sapiens)
Sequence (whole entry): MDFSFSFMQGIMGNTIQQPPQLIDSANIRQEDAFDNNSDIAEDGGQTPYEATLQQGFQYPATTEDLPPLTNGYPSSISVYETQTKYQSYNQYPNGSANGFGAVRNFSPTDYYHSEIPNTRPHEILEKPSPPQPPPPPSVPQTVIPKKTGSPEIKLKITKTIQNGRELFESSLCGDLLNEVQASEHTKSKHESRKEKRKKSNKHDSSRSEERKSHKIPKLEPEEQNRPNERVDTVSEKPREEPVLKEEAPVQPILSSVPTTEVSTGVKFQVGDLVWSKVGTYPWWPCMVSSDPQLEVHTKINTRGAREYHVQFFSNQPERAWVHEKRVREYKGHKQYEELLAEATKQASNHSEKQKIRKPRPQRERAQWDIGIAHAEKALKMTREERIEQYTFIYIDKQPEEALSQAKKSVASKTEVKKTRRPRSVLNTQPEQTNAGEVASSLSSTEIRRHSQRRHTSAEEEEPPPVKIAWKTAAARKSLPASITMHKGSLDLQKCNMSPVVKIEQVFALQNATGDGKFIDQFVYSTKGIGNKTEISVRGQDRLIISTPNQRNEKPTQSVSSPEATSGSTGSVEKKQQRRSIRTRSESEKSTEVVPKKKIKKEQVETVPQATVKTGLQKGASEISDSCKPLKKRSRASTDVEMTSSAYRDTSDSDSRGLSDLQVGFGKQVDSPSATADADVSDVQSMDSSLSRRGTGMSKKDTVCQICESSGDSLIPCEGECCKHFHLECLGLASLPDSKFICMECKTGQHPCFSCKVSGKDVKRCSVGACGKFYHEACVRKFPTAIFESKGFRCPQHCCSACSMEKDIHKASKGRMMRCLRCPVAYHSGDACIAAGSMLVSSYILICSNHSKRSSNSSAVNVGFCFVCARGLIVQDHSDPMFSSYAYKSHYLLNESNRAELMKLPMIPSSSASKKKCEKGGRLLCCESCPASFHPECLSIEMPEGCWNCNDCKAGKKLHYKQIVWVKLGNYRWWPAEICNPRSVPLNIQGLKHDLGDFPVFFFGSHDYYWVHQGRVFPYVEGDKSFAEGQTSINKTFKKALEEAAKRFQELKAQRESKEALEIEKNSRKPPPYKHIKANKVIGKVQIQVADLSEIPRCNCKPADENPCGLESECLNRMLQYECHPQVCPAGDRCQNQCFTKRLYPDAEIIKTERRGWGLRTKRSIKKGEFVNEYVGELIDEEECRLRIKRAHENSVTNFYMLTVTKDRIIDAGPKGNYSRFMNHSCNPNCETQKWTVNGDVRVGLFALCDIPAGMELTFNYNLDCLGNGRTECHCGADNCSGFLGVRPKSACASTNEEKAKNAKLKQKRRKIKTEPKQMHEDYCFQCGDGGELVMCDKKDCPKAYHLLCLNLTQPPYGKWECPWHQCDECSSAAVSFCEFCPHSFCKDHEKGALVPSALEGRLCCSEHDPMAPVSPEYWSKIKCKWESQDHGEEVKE
Assay: Inhibition of NSD3 (unknown origin) using biotin-labeled histone substrate assessed as residual activity at 50 uM in presence of [3H-Me]SAM by scintillation proximity assay relative to control
MEASURE: Activity (%)
Supply the numeric figure in %, leaving out any unit text.

>>> test_value("O=C(c1cccc(Br)c1)N1CCC2(CCNCC2)CC1")
98

### Prompt Sample "CN1CCCC12CCN(C(=O)c1cccc(Br)c1)CC2" — what was its Activity?
### Response 101

### Prompt Sample O=C(c1cccc(Br)c1)N1C[C@@H]2CC3CCCCN3[C@@H]2C1 (some centres undefined) — what was its Activity?
### Response 94

### Prompt Sample "O=C(c1cccc(Br)c1)N1C[C@@H]2CCN[C@@H]2C1" — what was its Activity?
### Response 94

### Prompt Sample "O=C(c1cccc(Br)c1)N1C[C@H]2CCCN[C@H]2C1" — what was its Activity?
### Response 100

### Prompt Sample "O=C(c1cccc(Br)c1)N1CCCC2(CCNCC2)C1" — what was its Activity?
### Response 93

* * *

Molecular target: N-lysine methyltransferase KMT5A (Homo sapiens) (UniProt Q9NQR1)
Sequence (whole entry): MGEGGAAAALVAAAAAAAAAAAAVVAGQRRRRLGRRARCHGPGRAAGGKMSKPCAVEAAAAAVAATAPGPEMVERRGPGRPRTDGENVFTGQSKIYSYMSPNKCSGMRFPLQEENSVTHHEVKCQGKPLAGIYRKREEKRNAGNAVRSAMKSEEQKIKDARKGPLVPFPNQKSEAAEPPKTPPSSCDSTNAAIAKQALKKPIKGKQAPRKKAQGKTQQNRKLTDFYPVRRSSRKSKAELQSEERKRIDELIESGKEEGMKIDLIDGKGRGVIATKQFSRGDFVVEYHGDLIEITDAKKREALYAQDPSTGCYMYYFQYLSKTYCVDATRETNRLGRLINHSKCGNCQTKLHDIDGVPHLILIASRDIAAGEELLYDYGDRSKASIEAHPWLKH
Test: Inhibition of SETD8 (unknown origin) using biotin-labeled histone H4 (1 to 24 residues) as substrate assessed as residual activity at 50 uM in presence of [3H-Me]SAM by scintillation proximity assay relative to control
Reported values of Activity for individual entries
Supply the numeric figure in %, leaving out any unit text.

>>> test_value("CN1CCCC2(CCCN(C(=O)c3cccc(Br)c3)C2)C1 (configuration not stated)")
107
>>> test_value("O=C(c1cccc(Br)c1)N1C[C@@H]2CC3CCCCN3[C@@H]2C1 (some centres not stated)")
106
>>> test_value("CN1CCCC12CCCN(C(=O)c1cccc(Br)c1)C2 (configuration not stated)")
96
>>> test_value("O=C(c1cccc(Br)c1)N1CCC2CNCC2C1 (configuration not stated)")
103
>>> test_value("CN1CCC2(CC1)CCN(C(=O)c1cccc(Br)c1)CC2")
91
>>> test_value("O=C(c1cccc(Br)c1)N1C[C@@H]2CC3CCCN3[C@@H]2C1 (some centres not stated)")
104

### Prompt Sample CN1CCCC2(CCCN2C(=O)c2cccc(Br)c2)C1 (configuration not stated) — what was its Activity?
### Response 106

### Prompt Sample "O=C(c1cccc(Br)c1)N1C[C@@H]2CCN[C@@H]2C1" — what was its Activity?
### Response 105

### Prompt Sample "O=C(c1cccc(Br)c1)N1CCC[C@@H]2CNC[C@@H]21" — what was its Activity?
### Response 103
